# System: KM12
# protocol-notes: NCI tumour cell line growth inhibition, 48 h
Calls of active or inactive are those of the source. No stated cut-off is given here; in the data, active = GI50 up to about 1.1 µM and inactive = higher.
Answer with one of the outcomes given here: 1.0 = active, 0.0 = inactive

Answered examples (5):
compound: CC(=O)O[C@H]1CC[C@H]2[C@@H]3CCC(C(C)=O)[C@H](C(=O)O)[C@H]3CC[C@]12C (stereo not given in full)
system-name: KM12
label-class: 0.0
--
compound: COC(=O)C1=C(C(=O)OC)SC(=C2SC3=C(SC(=C4SCCS4)S3)S2)S1
system-name: KM12
label-class: 0.0
--
compound: Cc1cccc(-c2nc3c(C(=O)NCCN(C)C)cccc3[nH]2)c1
system-name: KM12
label-class: 1.0
--
compound: CN1CN(c2ccccc2)C2(CCN(CC(C)(c3ccc(F)cc3)C3OCCCO3)CC2)C1=O (stereo not given)
system-name: KM12
label-class: 0.0
--
compound: Cc1cc(Cl)ccc1NC(=O)C(=O)Cc1nc2ccccc2o1
system-name: KM12
label-class: 0.0

-- ask Identify the outcome logged in this assay for the compound shown: CC(C)=NN/C(=N\c1ccc(Cl)cc1)NS(=O)(=O)c1ccc(C)cc1
-- reply 0.0

-- ask Check the results log: what was the call for COc1cccc(NC(=O)CC(=O)NN)c1 ?
-- reply 0.0

-- ask Any idea what this test logged for Cc1c(C#N)c(N)[nH]c(=S)c1C#N ?
-- reply 0.0

-- ask I would be grateful if you could indicate the recorded call for Cc1c2c(n(C)c1C)C(=O)C1C(C2=O)C2(C)c3ccccc3C1(C)c1ccccc12 (stereo not given) .
-- reply 0.0

-- ask In this assay, the call recorded for CCOC(=O)C(C)Sc1nnc(COc2ccc(Cl)cc2)n1-c1ccccc1 (stereo not given) was what?
-- reply 0.0

-- ask Just curious, what result did O=C1CCCCCC1CC(Sc1ccccc1)Sc1ccccc1 (stereo not given) get here?
-- reply 0.0

-- ask Name the outcome recorded for O=C(O)CN(CC(=O)O)Cc1cc2c(cc1O)Oc1cc(O)c(CN(CC(=O)O)CC(=O)O)cc1C21OC(=O)c2ccccc21 in the assay.
-- reply 0.0

-- ask Status in this test for Cn1cc2ccccc2c1-c1nc(F)nc(Oc2ccc3c(c2)CC[C@@H]2C3CC[C@@]3(C)C2CC[C@@H]3O)n1 (stereo not given in full) ?
-- reply 0.0

-- ask Record lookup: outcome of this test for Fc1cccc(C2SCc3nc4ccccc4n32)c1 (stereo not given) ?
-- reply 0.0

-- ask Hello, I am checking results. What call was entered for CC[C@]1(Cc2ccc(OC)c(OC)c2)C=[N+]([O-])O[C@H](OC2CCCC2(c2ccccc2)c2ccccc2)[C@@H]1OC(=O)C(C)(C)C (stereo not given in full) ?
-- reply 0.0

-- ask Returns: the outcome recorded for O=C(c1ccccc1)c1ccc2[nH]c(-c3c(Cl)c(Cl)c(Cl)c(Cl)c3C(=O)Nc3ccco3)nc2c1 in this assay.
-- reply 0.0

* * *

Listed here: items and their measured GI50.
# Test system: OVCAR-4
# protocol-notes: NCI tumour cell line growth inhibition, 48 h
The source made the active and inactive calls. Rule as the data show it: active = GI50 up to about 1.1 µM and inactive = higher.

Lab note: measured GI50 of Nc1ccc2c(O)cc(O)nc2n1 was > 100 µM (inactive)

get_value(item= O=C1/C(=N\O)C2CCC1C2 (stereo not given) , readout=GI50) returns > 100 µM (inactive)

Sure, the documented GI50 for O=C(CC(O)(C(F)(F)Cl)C(F)(F)Cl)CC(O)(C(F)(F)Cl)C(F)(F)Cl is 1.33 µM (inactive)

// sample Cc1cccc(C)c1NC(=S)NC=C(C(N)=O)C(N)=O , its GI50 was > 100 µM (inactive)

Memo: CCOC(=O)NC(Nc1ccc(C)cc1)(C(F)(F)F)C(F)(F)F , reported GI50: > 100 µM (inactive)

* * *

# System: KM12
# protocol-notes: NCI tumour cell line growth inhibition, 48 h
Calls of active or inactive are those of the source. No stated cut-off is given here; in the data, active = GI50 up to about 1.1 µM and inactive = higher.
Outcomes you can answer with include only these: active, inactive

These recorded examples may help you get a feel for the data.
compound: COC(=O)/C=C(\S/C(=N\n1cc(C(=O)OC)c(C(=O)OC)c1-c1ccc(C)cc1)c1ccc(C)cc1)C(=O)OC
label-class: inactive
//
compound: CCCCC(=O)OC[n+]1ccc2c(C)c3[nH]c4ccc(OC)cc4c3c(C)c2c1
label-class: active

Kindly consider the entry below.
-- ask Hi, do you know how COc1cc(C2S/C(=C/c3ccccc3)C(=O)N2c2cc(Cl)c(Cl)cc2Cl)cc(OC)c1OC (stereo not drawn) came out in this test?
-- reply inactive

* * *

# System: HL-60
# protocol-notes: NCI tumour cell line growth inhibition, 48 h
The source made the active and inactive calls. No stated cut-off is given here; in the data, active = GI50 up to about 1.1 µM and inactive = higher.
Just give me one of these, please: active, inactive

compound: COc1ccc(C2=CC(c3ccc4c(c3)OCO4)c3c(c4ccccc4oc3=O)O2)cc1OC (configuration not stated)
label-class: active
//
compound: CN(C)CCNc1ccccn1
label-class: inactive
//
compound: CC(=O)Nc1ccc(S(=O)(=O)N/N=C/c2cc(I)cc([N+](=O)[O-])c2O)cc1
label-class: inactive
//
compound: COc1c2cc(C(C)(C)C)cc1CSCc1cc(C(C)(C)C)cc(c1OC)CCCCC2
label-class: inactive
//
compound: COc1cc(Br)cc2cc(-c3cn4c(n3)sc3ccccc34)c(=O)oc12
label-class: inactive
//
compound: CCOC(=O)/C=C1/C(CCCOCc2ccccc2)C2CCCC23CC2(CCN13)OCCO2 (configuration not stated)
label-class: inactive
//
compound: CCOC(=O)C(C)Sc1nnc(COc2ccc(Cl)cc2)n1-c1ccccc1 (configuration not stated)
label-class: inactive
//
compound: CN[C@@H]1C[C@H]2O[C@@](C)([C@@H]1OC)n1c3ccccc3c3c4c(c5c6ccccc6n2c5c31)C(=O)N[C@@H]4O
label-class: active

-- ask # fetch the recorded call for COC(=O)CC(=O)OC1C[C@@H]2CCC3C(C)(C)CCC[C@]3(C)C23CC[C@@]1(C)C3 (some centres not stated) here
-- reply inactive

-- ask Per the assay record, what outcome was assigned to COc1cc(OC)cc(Oc2nc3cc(F)c(F)cc3nc2-c2ccccc2)c1 ?
-- reply inactive

-- ask Per the assay record, what outcome was assigned to Nc1nc(SCc2ccccn2)c2ncn(C3CCCC3)c2n1 ?
-- reply inactive

-- ask Status in this test for c1ccc(P(=C2c3ccccc3-c3ccccc32)(c2ccccc2)c2ccccc2)cc1 ?
-- reply inactive

* * *

# Test system: UO-31
# protocol-notes: NCI tumour cell line growth inhibition, 48 h
The source made the active and inactive calls. No stated cut-off is given here; in the data, active = GI50 up to about 1.1 µM and inactive = higher.
value-kind: GI50

// GI50 lookup, molecule = CC1=CC(=O)C(=O)C2=C1OC1(C2)C(C)CCC2C3(C)CCC(O)C(C)(C)C3CCC21C (stereo not drawn) , result: 18.4 µM (inactive)

The reported value for CCCCOCN/C(N)=N/C#N in terms of GI50 is > 100 µM (inactive)

* * *

# Tested on: UACC-257
# protocol-notes: NCI tumour cell line growth inhibition, 48 h
Active and inactive are the calls of the source. Cut-off read from the data, not from the text of the source: active = GI50 up to about 1.1 µM and inactive = higher.
Known GI50 of a selection of compounds

Here are 8 compounds together with their reported answers.
compound: CN(C)CCNc1ccc2ncn3c4ccc(O)cc4c(=O)c1c23
system-name: UACC-257
GI50: 5.74 µM (inactive)

compound: O=C(/C=C(\O)C(=O)O)/C=C(\O)c1ccccc1
system-name: UACC-257
GI50: > 4.65 µM (inactive)

compound: Cn1cnc(C(N)=[Se])c1N
system-name: UACC-257
GI50: 7.24 µM (inactive)

compound: O=C(CN1CCN(C(=O)OCc2ccccc2)CCN(CC(=O)N2CCCCC2)CCN(C(=O)OCc2ccccc2)CC1)N1CCCCC1
system-name: UACC-257
GI50: 3.49 µM (inactive)

compound: CCOC(=O)CCCNC(=O)CCCCC(=O)N(C)C
system-name: UACC-257
GI50: > 100 µM (inactive)

compound: O=C(/C=C/c1ccccc1)CSc1nc[nH]n1
system-name: UACC-257
GI50: > 100 µM (inactive)

compound: Nc1nnnn1NC(=O)NCCCl
system-name: UACC-257
GI50: > 10 µM (inactive)

compound: COC(=O)C1=C(c2ccc3c(c2)OCO3)OC(c2cc(OC)c(OC)c(OC)c2)C1 (stereo unspecified)
system-name: UACC-257
GI50: 7.18 µM (inactive)

Measured GI50 of c1csc(-c2cc(-c3cccs3)c(-c3ccsc3)s2)c1 : 58.1 µM (inactive)

Value of measured GI50 for the entry O=S(=O)(c1cc(Cl)ccc1Cl)N1CCN(c2ccc(Cl)c(Cl)c2)CC1 : 33.3 µM (inactive)

Form field GI50, entry CC1S/C(=N/c2nnc(-c3ccccc3)o2)NC1=O (stereo unspecified) : 53.8 µM (inactive)

* * *

# System: HOP-62
# protocol-notes: NCI tumour cell line growth inhibition, 48 h
The source made the active and inactive calls. Rule as the data show it: active = GI50 up to about 1.1 µM and inactive = higher.
Outcomes you can answer with include only these: active, inactive

Before answering, review these 5 worked examples.
compound: O=S(=O)(O)c1ccc(/N=N/c2ccc(/N=N/c3c(O)ccc4ccc(S(=O)(=O)O)cc34)cc2)cc1
system-name: HOP-62
label-class: inactive
--
compound: CCN(CC)CCN1CCN=C2c3cc(OC)ccc3Nc3c([N+](=O)[O-])ccc1c32
system-name: HOP-62
label-class: active
--
compound: COc1ccc(C2=CC(c3ccc4c(c3)OCO4)c3c(c4ccccc4oc3=O)O2)cc1OC (stereo not drawn)
system-name: HOP-62
label-class: inactive
--
compound: COC(=O)C1C(C(=O)OC)C2(OC(c3ccc(Cl)cc3)=CC2=O)C12OC(c1ccc(Cl)cc1)=CC2=O (stereo not drawn)
system-name: HOP-62
label-class: inactive
--
compound: Cc1ccc2sc3cc(=O)cc(C)c-3nc2c1
system-name: HOP-62
label-class: inactive

-- ask Recorded call for O=C(CC(O)(C(F)(F)Cl)C(F)(F)Cl)CC(O)(C(F)(F)Cl)C(F)(F)Cl ?
-- reply inactive

-- ask Outcome logged for Nc1nc(Cl)c(CO)c(NCC2(CO)CC(CCc3ccccc3)C2)n1 (stereo not drawn) in this assay:
-- reply inactive

-- ask Called result for Cc1ccc(N2C3=C(CC4=C2CC(C)(C)CC4=O)C(=O)CC(C)(C)C3)cc1
-- reply inactive

-- ask Hello, I am checking results. What call was entered for Nc1nc(S)nc(C(=O)Nc2nccs2)c1-c1ccccc1 ?
-- reply inactive

-- ask # lookup: test call for CC1(C)OC[C@H](C(=N)OCc2ccccc2)O1
-- reply inactive

-- ask Each compound tested received a call. Report the one for COc1ccc(-c2cc(=O)c3c(O)c(OC)c(OC)c(OC)c3o2)cc1 .
-- reply inactive

-- ask // return assay outcome for CN(C)CCn1c(=O)c2ccc(NCCNCCO)c3c(=O)c4ccccc4n(c1=O)c23
-- reply active

-- ask In this assay, the call recorded for O=C1C2=C(SCCS2)C(=O)c2c(Sc3ccc(Cl)cc3)c(Sc3ccc(Cl)cc3)c(Sc3ccc(Cl)cc3)c(Sc3ccc(Cl)cc3)c21 was what?
-- reply inactive
